# Tested on: Escherichia coli TOP10
# experimentalProtocol: shrunken log2 fold change of peptide-encoding DNA abundance (4.5 h post-induction vs induction); higher = less antimicrobial activity (less host growth inhibition)
# assayContext: time post-induction: 4.5 h; library: site-saturation at positions 5, 18, 19, 20
Category scheme (shrunken log2 fold change): lower = under -0.004, middle = from -0.004 up to 0.2, upper = 0.2 and over

Q) Please report the category associated with RRIRVRPPRLPRPRPRPQGNPRP , nothing else.
A) middle

Q) Another: RRIRDRPPRLPRPRPRPKMQPRP
A) upper

Q) Entry RRIRNRPPRLPRPRPRPGHTPRP please
A) lower

Q) Please give the result for RRIRERPPRLPRPRPRPEFLPRP too.
A) upper

Q) And for RRIRYRPPRLPRPRPRPTRFPRP ?
A) middle

Q) Ok, now RRIRQRPPRLPRPRPRPRVTPRP
A) upper

Q) Try the sequence RRIRHRPPRLPRPRPRPKHPPRP
A) lower

Q) Proceed to RRIRGRPPRLPRPRPRPGNKPRP
A) lower

Q) Moving on to the next sequence: RRIRRRPPRLPRPRPRPCEVPRP
A) lower

Q) Similarly, RRIRCRPPRLPRPRPRPTAPPRP ?
A) upper

Q) Repeat with RRIRERPPRLPRPRPRPLNGPRP
A) lower

Q) For RRIRIRPPRLPRPRPRPNEQPRP then?
A) middle

Q) Next entry: RRIRPRPPRLPRPRPRPPPYPRP
A) middle

Q) Also check RRIRTRPPRLPRPRPRPPVKPRP
A) upper

Q) Try RRIRARPPRLPRPRPRPTCSPRP next.
A) upper

Q) What about this sequence? RRIRKRPPRLPRPRPRPIVGPRP
A) middle

Q) RRIRRRPPRLPRPRPRPEVLPRP ?
A) upper

Q) Follow-up item: RRIRSRPPRLPRPRPRPIFVPRP
A) middle

Q) Please do the same for RRIRYRPPRLPRPRPRPQSQPRP as well.
A) lower

Q) Can you check RRIRRRPPRLPRPRPRPIYQPRP next?
A) upper

Q) Same question, RRIRYRPPRLPRPRPRPCCNPRP this time
A) middle

Q) Now consider RRIRCRPPRLPRPRPRPIVCPRP .
A) lower

Q) # iterate: RRIRARPPRLPRPRPRPAKHPRP
A) upper

Q) Same question, RRIRARPPRLPRPRPRPYTPPRP this time
A) lower

Q) What do we get for RRIRIRPPRLPRPRPRPTACPRP ?
A) middle

Q) Entry RRIRCRPPRLPRPRPRPFINPRP please
A) lower

Q) Thanks! And RRIRQRPPRLPRPRPRPAVFPRP ?
A) lower

Q) Input RRIRDRPPRLPRPRPRPSDGPRP
A) middle

Q) Let us now turn to RRIRFRPPRLPRPRPRPASDPRP
A) lower

Q) What do you have for RRIRFRPPRLPRPRPRPWPWPRP ?
A) middle

Q) Same for RRIRMRPPRLPRPRPRPKFRPRP
A) middle

Q) Entry RRIRHRPPRLPRPRPRPCAPPRP please
A) middle

Q) Let us now turn to RRIRARPPRLPRPRPRPHPTPRP
A) upper

Q) Consider next the sequence RRIRGRPPRLPRPRPRPKMKPRP in the same way.
A) upper

Q) Proceed to RRIRNRPPRLPRPRPRPPRMPRP
A) upper

Q) Then this sequence: RRIRHRPPRLPRPRPRPTSGPRP
A) lower

Q) What about RRIRRRPPRLPRPRPRPTDIPRP ?
A) lower

Q) Same for RRIRFRPPRLPRPRPRPDVDPRP
A) middle

Q) Same question for RRIRERPPRLPRPRPRPNRGPRP please.
A) middle

Q) Let us now turn to RRIRRRPPRLPRPRPRPEMDPRP
A) middle

Q) RRIRNRPPRLPRPRPRPRFPPRP , same question.
A) lower

Q) And then RRIRVRPPRLPRPRPRPKKQPRP , what is it?
A) upper

Q) Thanks! And RRIRNRPPRLPRPRPRPIHMPRP ?
A) middle

---

# System: Escherichia coli TOP10
# experimentalProtocol: shrunken log2 fold change of peptide-encoding DNA abundance (4.5 h post-induction vs induction); higher = less antimicrobial activity (less host growth inhibition)
# assayContext: time post-induction: 4.5 h; library: site-saturation at positions 5, 18, 19, 20
Note to self: values exactly at 0.1 are t. So shrunken log2 fold change at or above 0.1 is t, below is f.

Q) Has RRIRYRPPRLPRPRPRPMGKPRP a recorded shrunken log2 fold change greater than or equal to 0.1?
A) f

Q) Next up: RRIRLRPPRLPRPRPRPRKKPRP
A) t

Q) Check RRIRNRPPRLPRPRPRPSTWPRP too.
A) f

Q) Now the sequence RRIRDRPPRLPRPRPRPHGVPRP
A) f

Q) Now consider RRIRGRPPRLPRPRPRPYQFPRP .
A) f

Q) Can you handle RRIRWRPPRLPRPRPRPCERPRP next?
A) f

Q) How about this sequence: RRIRKRPPRLPRPRPRPWVFPRP
A) f

Q) Next record, please: RRIRDRPPRLPRPRPRPEVQPRP
A) t

Q) Would you mind doing RRIRMRPPRLPRPRPRPLWGPRP as well?
A) t

Q) Further, for RRIRWRPPRLPRPRPRPDCGPRP ?
A) t

Q) Cool, now RRIRHRPPRLPRPRPRPINQPRP
A) f

Q) Also, RRIRTRPPRLPRPRPRPIWRPRP please.
A) f

Q) Try the sequence RRIRWRPPRLPRPRPRPMCSPRP
A) t

Q) And what about the sequence RRIRNRPPRLPRPRPRPLNGPRP ?
A) f

---

# System: Escherichia coli TOP10
# experimentalProtocol: shrunken log2 fold change of peptide-encoding DNA abundance (4.5 h post-induction vs induction); higher = less antimicrobial activity (less host growth inhibition)
# assayContext: time post-induction: 4.5 h; library: site-saturation at positions 5, 18, 19, 20
readoutKind: shrunken log2 fold change
When you answer, write just the number.

Q) API: value(readout= shrunken log2 fold change, system= Escherichia coli TOP10, query= RRIRRRPPRLPRPRPRPFCEPRP )
A) 0.0918

Q) Now the same for RRIRFRPPRLPRPRPRPPYKPRP
A) -0.279

Q) Check RRIRDRPPRLPRPRPRPFNVPRP too.
A) -0.00548

Q) Param item: RRIRYRPPRLPRPRPRPQHAPRP
A) -0.313

Q) Do the same for RRIRRRPPRLPRPRPRPYNIPRP please
A) -0.464

Q) Same again, this time with RRIRLRPPRLPRPRPRPINAPRP
A) -0.177

Q) Repeat with RRIRPRPPRLPRPRPRPSDYPRP
A) -0.691

Q) Try this sequence next: RRIRARPPRLPRPRPRPMKVPRP
A) -0.0785

Q) Next sequence: RRIRKRPPRLPRPRPRPVMEPRP
A) 0.581

Q) What do you get for RRIRPRPPRLPRPRPRPYEKPRP ?
A) -0.0835

Q) Ok, now RRIRIRPPRLPRPRPRPFAEPRP
A) -0.221

Q) Item: RRIRKRPPRLPRPRPRPICWPRP
A) 0.239

Q) Also RRIRDRPPRLPRPRPRPSFGPRP , if possible.
A) -0.0644

Q) Next: RRIRNRPPRLPRPRPRPLCSPRP
A) -0.0294

Q) Try the sequence RRIRQRPPRLPRPRPRPEHCPRP
A) -0.199

Q) // next record RRIRNRPPRLPRPRPRPHITPRP
A) -0.399

Q) Subsequent entry: RRIRNRPPRLPRPRPRPISKPRP
A) -0.472

Q) Further, for RRIRCRPPRLPRPRPRPCYFPRP ?
A) -0.779

Q) Also need RRIRVRPPRLPRPRPRPPRWPRP , thanks.
A) 0.812

Q) Similarly, RRIRLRPPRLPRPRPRPQARPRP ?
A) 0.169

Q) Another sequence to check: RRIRPRPPRLPRPRPRPACGPRP
A) 0.839

Q) And RRIRVRPPRLPRPRPRPFLPPRP ?
A) -0.198

Q) Now the sequence RRIRARPPRLPRPRPRPKSVPRP
A) 0.0188

Q) Can you check RRIRVRPPRLPRPRPRPELDPRP next?
A) 0.183

Q) Another sequence: RRIRRRPPRLPRPRPRPNWVPRP
A) 0.00352

---

# Test system: Escherichia coli TOP10;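 note: peptides expressed intracellularly from a pBAD plasmid library in pooled LB shake-flask culture, induced with 0.3% L-arabinose, DNA abundance read by NGS, three biological replicates, DESeq2 with apeglm shrinkage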
# experimentalProtocol: shrunken log2 fold change of peptide-encoding DNA abundance (4.5 h post-induction vs induction); higher = less antimicrobial activity (less host growth inhibition)
# assayContext: time post-induction: 4.5 h; library: site-saturation at positions 5, 18, 19, 20
Rule: Met for shrunken log2 fold change not less than 0.1, Not met for anything less.

Q) Is shrunken log2 fold change for RRIRIRPPRLPRPRPRPTYNPRP at or above 0.1?
A) Not met

Q) Likewise for RRIRYRPPRLPRPRPRPQTFPRP ?
A) Not met

Q) Next entry: RRIRKRPPRLPRPRPRPEIWPRP
A) Met

Q) Same for RRIRPRPPRLPRPRPRPTPVPRP
A) Met

Q) Note, next up: RRIRPRPPRLPRPRPRPDVVPRP
A) Not met

Q) Same read-out for RRIRDRPPRLPRPRPRPEVFPRP ?
A) Met

Q) Then this sequence: RRIRFRPPRLPRPRPRPWKQPRP
A) Not met

Q) Here is the next sequence: RRIRMRPPRLPRPRPRPPRNPRP
A) Met

Q) Next entry: RRIRHRPPRLPRPRPRPDKFPRP
A) Not met

Q) Can you handle RRIRARPPRLPRPRPRPMLMPRP next?
A) Not met

Q) Would you mind doing RRIRSRPPRLPRPRPRPRADPRP as well?
A) Met

Q) Now consider RRIRGRPPRLPRPRPRPEETPRP .
A) Met

Q) Could you do the same for RRIRARPPRLPRPRPRPYPSPRP , please?
A) Not met

Q) # repeat for RRIRWRPPRLPRPRPRPWWYPRP
A) Not met

Q) Follow-up item: RRIRKRPPRLPRPRPRPWRKPRP
A) Not met

Q) Now the same for RRIRKRPPRLPRPRPRPGVQPRP
A) Met

Q) Also RRIRMRPPRLPRPRPRPDVQPRP , if possible.
A) Not met

Q) Now give it for RRIRMRPPRLPRPRPRPHRAPRP too.
A) Met

Q) Next up: RRIRQRPPRLPRPRPRPECTPRP
A) Not met

Q) Now try RRIRSRPPRLPRPRPRPRSWPRP .
A) Not met

Q) # iterate: RRIRLRPPRLPRPRPRPVITPRP
A) Not met

Q) What about this sequence? RRIRNRPPRLPRPRPRPGYFPRP
A) Not met

Q) Same for RRIRWRPPRLPRPRPRPSWCPRP
A) Not met

Q) Check RRIRFRPPRLPRPRPRPAWVPRP too.
A) Met

Q) Do the same for RRIRCRPPRLPRPRPRPDASPRP please
A) Met

Q) One more sequence: RRIRKRPPRLPRPRPRPESPPRP
A) Met

Q) Same question for RRIRKRPPRLPRPRPRPGWWPRP please.
A) Not met

Q) Proceed to RRIRLRPPRLPRPRPRPKNMPRP
A) Not met

Q) Request: RRIRERPPRLPRPRPRPDYHPRP
A) Not met

Q) For RRIRYRPPRLPRPRPRPRHVPRP then?
A) Not met

Q) Next up: RRIRGRPPRLPRPRPRPSPQPRP
A) Met

Q) Next sequence: RRIRPRPPRLPRPRPRPHILPRP
A) Not met

Q) Same question, RRIRKRPPRLPRPRPRPDWNPRP this time
A) Met

Q) Would you kindly repeat that for RRIRYRPPRLPRPRPRPHRGPRP ?
A) Not met

Q) Moving on to RRIRNRPPRLPRPRPRPEDEPRP
A) Not met

Q) Also, RRIRVRPPRLPRPRPRPFPFPRP please.
A) Not met

Q) Another: RRIRVRPPRLPRPRPRPKIEPRP
A) Met

Q) Quick one: RRIRGRPPRLPRPRPRPVRWPRP
A) Met

Q) // repeat for RRIRCRPPRLPRPRPRPNTGPRP and report
A) Not met

Q) # repeat for RRIRARPPRLPRPRPRPLPKPRP
A) Met

Q) Try this sequence too: RRIRFRPPRLPRPRPRPEEDPRP
A) Not met

Q) Next sequence: RRIRDRPPRLPRPRPRPAVMPRP
A) Not met

Q) Again, but for RRIRTRPPRLPRPRPRPKCTPRP
A) Not met

Q) Same lookup for RRIRARPPRLPRPRPRPIYDPRP , please.
A) Not met

Q) Do the same for RRIRHRPPRLPRPRPRPTFVPRP please
A) Not met

Q) How about RRIRTRPPRLPRPRPRPPLRPRP ?
A) Met

Q) For RRIRQRPPRLPRPRPRPFPEPRP then?
A) Not met

Q) Now try RRIRPRPPRLPRPRPRPKWYPRP .
A) Not met
